Property: pKd; scope: individual binders
# TARGET_OR_TEST_SYSTEM: T1, SARS-CoV-2 S1 (aa16-685) (Wuhan) (SARS-CoV-2 Wuhan, UniProt P0DTC2 16-685)
# T1 construct: NRC; FLAG, 6xHis tags
# PROTOCOL_SUMMARY: SPR, antigen on chip
Value format note: pKd is -log10 of concentration (mol/L); just state the number.

Examples from the recorded data:
NRCoV2-06 VHH (VHH) VHH: EVQLVQSGGGLVQAGESLRLSCAASVSTFSSYAMGWYRQAPGKQRELVASIGFVGATYYIDSVKGRFTISRDNAKKTAYLQMNDLKPDDTAVYYCNARHYGGSEYWGQGTQVTVSS : 6.89
NRCoV2-17 VHH (VHH) VHH: EVQLQQSGGGLVQTGGSLRLSCAAAGSPFSQLAMSWYRQISGKERAWVASISPTGNRSYSKIAKGRFTISRDNAKNTVTLQMTSLKPEDTAAYICQAANVNGGDYWGQGTQVTVSS : 9.82
NRCoV2-14 VHH (VHH) VHH: EVQLVSSGGGLVQAGGSLRLSCEASGTTFSHYAVGWYRQAPGKQREWVASISVFGSTTYGGSVAGRFTISRDNDKNTVDLQMNSLKPEDTAVYYCHAVNADIGGDYWGQGTQVTVSS : 8.46

Supply reported pKd belonging to this binder: NRCoV2-18 VHH (VHH) VHH: EVQLVESGGGLVQAGGSLRLSCVASGITISGYNMAWWRQTRGKQTERVAFINSGGSTTYSDSVKGRFTISRDNGKNTAYLQMNSLNAEDTADYFCSLHTSHDYWGQGTQVTVSS
9.27
